Target: recombinant human MAO-B (Homo sapiens, UniProt P27338)
Construct: purchased Sigma Aldrich
Sequence (P27338 whole entry): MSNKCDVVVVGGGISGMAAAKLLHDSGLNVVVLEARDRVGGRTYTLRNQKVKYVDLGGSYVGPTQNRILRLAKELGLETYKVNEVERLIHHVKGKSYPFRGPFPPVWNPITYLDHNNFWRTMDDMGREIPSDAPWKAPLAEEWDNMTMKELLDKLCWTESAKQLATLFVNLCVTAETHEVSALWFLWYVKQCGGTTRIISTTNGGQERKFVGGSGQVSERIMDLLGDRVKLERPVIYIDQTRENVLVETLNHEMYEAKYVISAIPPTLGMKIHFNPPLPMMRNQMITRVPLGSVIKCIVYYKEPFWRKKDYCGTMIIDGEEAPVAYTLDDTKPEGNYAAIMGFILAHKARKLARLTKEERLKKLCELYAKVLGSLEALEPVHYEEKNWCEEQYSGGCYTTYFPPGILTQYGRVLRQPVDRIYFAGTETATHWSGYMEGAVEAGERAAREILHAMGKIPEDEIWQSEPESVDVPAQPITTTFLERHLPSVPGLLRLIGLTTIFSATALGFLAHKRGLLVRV
Experiment: biochemical
Details: single dose concentration of 10 µM; ±sem
Parameter: inhibition at 10 µM. Scope: all listed entries.
METRIC: inhibition at 10 µM (%)

• COc1ccc(OC)c(/C=C2\Oc3cc(OCCCN4CCCC4)ccc3C2=O)c1 = 20.3
• COc1ccc(/C=C2\Oc3cc(OCCN4CCCC4)ccc3C2=O)cc1 = 39.3
• COc1ccc(/C=C2\Oc3cc(OCCN4CCCC4)ccc3C2=O)cc1OC = 48.1
• COc1cccc(/C=C2\Oc3cc(OCCCN4CCCCC4)ccc3C2=O)c1 = 18.1
• COc1ccc(/C=C2\Oc3cc(OCCCCN4CCCCC4)ccc3C2=O)cc1OC = 3.89
• COc1ccc(/C=C2\Oc3cc(OCCCN4CCCC4)ccc3C2=O)cc1 = 45.6
• COc1cccc(/C=C2\Oc3cc(OCCN4CCOCC4)ccc3C2=O)c1 = 27.9
• COc1ccc(/C=C2\Oc3cc(OCCCN4CCCC4)ccc3C2=O)cc1OC = 39.2
• COc1cccc(/C=C2\Oc3cc(OCCN4CCCC4)ccc3C2=O)c1 = 39.1
• COc1ccc(/C=C2\Oc3cc(OCCCCN4CCCC4)ccc3C2=O)cc1 = 49.8
